System: Wnt5a (protein binding on small-molecule microarray)
Test: small molecules binding Wnt5a protein – biophysical, small-molecule microarray, 635/667 nm fluorescence, primary screen (AID 1142);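 also: fluorescence read at 667 nm with signal to noise per printed feature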
Conditions: 635 nm fluorescence, higher = more signal
Result Type: composite z-score

## Task Form: Entry = "O=C(NC1CC1)[C@@H]1c2ccccc2C(=O)N(Cc2cc(C(F)(F)F)cc(C(F)(F)F)c2)[C@H]1c1ccc(CO)cc1" | System = Wnt5a (protein binding on small-molecule microarray) | composite z-score = ____
## Result -0.0738

## Task Form: Entry = "C=CCOC(=O)[C@H]1[C@@H]2C(=O)O[C@@H](c3ccccc3)[C@@H](c3ccccc3)N2[C@@H](c2ccc(OCCOC(=O)[C@@H]3C[C@@H]4C(=O)N[C@@H](CCCC[N+](C)(C)C)C(=O)N4[C@@H]3c3ccc(O)cc3)cc2)[C@]12C(=O)Nc1ccc(I)cc12" | System = Wnt5a (protein binding on small-molecule microarray) | composite z-score = ____
## Result 1.02

## Task Form: Entry = "C=C(CCCC)/C(=C/C[C@H](OC(=O)c1ccncc1)c1cccc(OCCO)c1)c1cnc2ccccc2c1" | System = Wnt5a (protein binding on small-molecule microarray) | composite z-score = ____
## Result 0.24

----------
Target: E3 ubiquitin-protein ligase XIAP (Homo sapiens)
Assay: small molecules binding XIAP protein – biophysical, small-molecule microarray, fluorescence 635 nm, primary screen (AID 1181);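 also: score merges 667 nm emission and signal to noise over triplicate slides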
Settings: higher = more signal
Measured composite z-score of individual entries
Give only the figure.

These recorded examples may help you get a feel for the data.
[
  {
    "Molecule": "Cc1ccc(C(C)CC(O)C2C=CC3C(=O)N(C)C(=O)C3N2Nc2ccccc2)o1 (stereo not drawn)",
    "composite z-score": 0.198
  },
  {
    "Molecule": "C=CCOC(=O)[C@H]1[C@@H]2C(=O)O[C@@H](c3ccccc3)[C@@H](c3ccccc3)N2[C@@H](c2ccc(OCCOC(=O)[C@@H]3C[C@@H]4C(=O)N[C@@H](CCCC[N+](C)(C)C)C(=O)N4[C@@H]3c3ccc(O)cc3)cc2)[C@]12C(=O)Nc1ccc(I)cc12",
    "composite z-score": 0.261
  }
]

## Task What does the data say about its composite z-score? Entry: "O=C(NCc1ccccc1)[C@@H]1c2ccccc2C(=O)N(Cc2ccc(OC(F)(F)F)cc2)[C@H]1c1ccc(CO)cc1"
## Result 0.371

----------
Assay: blood-stage malaria parasite viability loss – strain 3D7, DAPI fluorescence, 100 nL, primary screen (AID 1184);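 also: parasites grown inside human red blood cells in medium with human serum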
Conditions: P. falciparum 3D7 growth, 3 d, higher = more signal
Measured z-score of individual entries
Give only the figure.

[
  {
    "Smiles String": "COCCOC(=O)N1C(=O)[C@@]2(c3cc(C#CC4(O)CCCCCC4)ccc31)[C@H](c1ccc(O)cc1)N1[C@H](c3ccccc3)[C@H](c3ccccc3)OC(=O)[C@H]1[C@@H]2C(=O)N1CCCCCCC1",
    "Numeric Value": -1.74
  },
  {
    "Smiles String": "CCCNC(=O)[C@@]1(c2ccc([N+](=O)[O-])cc2)CC(=O)N(C(C)C)[C@@H]1c1ccc(CO)cc1",
    "Numeric Value": -0.379
  },
  {
    "Smiles String": "Cc1ccc(S[C@]2(C(=O)NC3CC3)CC(=O)N(C(C)C)[C@@H]2c2ccc(CO)cc2I)cc1",
    "Numeric Value": -1.63
  }
]

Continue with the next compound.
## Task What does the data say about its z-score? Entry: "C=C(COC)C(=O)CC[C@@H](OC(=O)c1ccccc1-c1ccccc1C(=O)O)c1ccc(OCCO)cc1"
## Result -0.61
